Tested on: 786-0 renal
Assay: NCI tumour cell line growth inhibition, 48 h
// reported TGI for each item listed

Answered cases to consult:
molecule=CCN(CC)CCn1c2ccccc2c(=O)c2c(OC)ccc(OC)c21 observed_value="> 100 µM"
molecule=Nc1ncnc2c1ccn2[C@@H]1O[C@H]([C@H](O)c2ccc(Cl)c(F)c2)[C@@H](O)[C@H]1O observed_value="> 100 µM"
molecule=COc1cc(C=O)cc(O)c1O observed_value="> 100 µM"
molecule=COc1cc(/C=C/C(=O)c2c(C)nc3ccccc3c2C)ccc1OCCCN1CCN(C(=O)c2ccco2)CC1 observed_value="20.5 µM"
molecule="Cc1ccc(NC(=O)OCC(COc2ccc(Cl)cc2Cl)OC(=O)Nc2ccc(C)cc2)cc1 (configuration not stated)" observed_value="> 100 µM"

Inquiry: Give the measured TGI of C#CC1NC(=O)C1N(CC)CC (configuration not stated) .
Reply text: > 100 µM

Inquiry: Follow-up item: `Cc1cc(Cl)cc(Cc2cc(Cl)cc(C)c2O)c1O`
Reply text: 7.76 µM
